Experiment: logP determination by HPLC on a reversed-phase column (C 18), EEC Directive 79/831 Annex V.A8
Format: physicochemical
Settings: method marked [b] in Table 1
Endpoint: logP

[[record]]
compound = "CON=C(c1ccccc1)c1cccc(C(C)=NOCC(C)CON=C(C)c2cccc(C)n2)n1 (mixture of isomers)"
observed_measurement = "6.22^[b]"

[[record]]
compound = "CC(=NOCC1(CON=C(C)c2cc(C)cc(C)n2)CC(CC(C)C)=NO1)c1cc(C)cc(C)n1 (centres unmarked)"
observed_measurement = "2.66^[b]"

[[record]]
compound = "Cc1nc(/C(N)=N/OCc2ccccc2CO/N=C(\\N)c2nc(C)c(Cl)c(C)n2)nc(C)c1Cl"
observed_measurement = "3.41^[b]"

[[record]]
compound = "CC(=NOCc1ccc(CON=C(C)c2nc(C)c(C)s2)cc1)c1nc(C)c(C)s1"
observed_measurement = "5.84^[b]"

[[record]]
compound = "C=Cc1cccc(C(C)=NOCC(C)CON=C(C)c2cccc(C=C)n2)n1 (centres unmarked)"
observed_measurement = "6.6^[b]"

[[record]]
compound = "C=C(CON=C(C)c1cccc(C)n1)CON=C(c1cccc(C)n1)C1CC1 (single isomer, unassigned) [compound 537]"
observed_measurement = "3.46^[b] (isomer B)"

[[record]]
compound = "CC(=NOC(C)CC(C)ON=C(C)c1cc(C)cc(C)n1)c1cc(C)cc(C)n1 (centres unmarked)"
observed_measurement = "2.39^[b]"

[[record]]
compound = "Cc1cccc(C(=NOCC(C)CON=C(c2cccc(C)n2)c2cccs2)c2cccs2)n1 (centres unmarked)"
observed_measurement = "4.49^[b]"


###

Measured logP accompanies every entry in the list below.
Experiment: logP determination by HPLC on a reversed-phase column (C 18), EEC Directive 79/831 Annex V.A8
Type: physicochemical
Details: value marked [b]
Endpoint: logP

[[record]]
compound = "C=C(CON=C(C)c1cccc(C)n1)CON=C(c1ccccc1)c1ncccc1C"
observed_measurement = "3.89^[b]"

[[record]]
compound = "CC(=NOCC(C)(C)CON=C(C)c1cccc(C)n1)c1cccc(C(F)(F)F)c1"
observed_measurement = "6.16^[b]"

[[record]]
compound = "COc1cccc(C(C)=NOCC(C)CON=C(C)c2cccc(C)n2)c1 (centres unmarked)"
observed_measurement = "4.80^[b]"

[[record]]
compound = "COC(CON=C(C)c1cccc(C)n1)CON=C(C)c1cccc(C)n1 (centres unmarked)"
observed_measurement = "2.22^[b]"

[[record]]
compound = "C=C(CON=C(C)c1cccc(C)n1)CON=C(C)c1cccc2ccccc12"
observed_measurement = "5.02^[b]"

[[record]]
compound = "CC(=NOCCCCON=C(c1cccc(C)n1)C(C)C)c1cccc(C)n1 [compound 334]"
observed_measurement = "4.72^[b] (isomer B)"

[[record]]
compound = "CC(=NOCC(C)CON=C(C)c1cc(CO)cc(C)n1)c1cc(CO)cc(C)n1 (centres unmarked)"
observed_measurement = "1.31^[b]"

[[record]]
compound = "CCc1cccc(C(C)=NOCC(C)(C)CON=C(C)c2cccc(C)n2)n1"
observed_measurement = "5.78^[b]"

[[record]]
compound = "CCC(CC)(CON=C(C)c1cc(C)cc(C)n1)CON=C(C)c1cc(C)cc(C)n1"
observed_measurement = "4.79^[b]"

[[record]]
compound = "C=C(CON=C(C)c1ccc2c(c1)OCO2)CON=C(C)c1cccc(C)n1"
observed_measurement = "4.20^[b]"

[[record]]
compound = "C=CCCC(=NOCC(C)CON=C(C)c1cccc(C)n1)c1ncccc1C (centres unmarked)"
observed_measurement = "4.10^[b]"

[[record]]
compound = "CC(=NOCC1(CON=C(C)c2nc(C)ccc2C)CCC1)c1nc(C)ccc1C (single isomer, unassigned) [compound 760]"
observed_measurement = "2.72^[b]"

[[record]]
compound = "CCCC(=NOCCCCCCON=C(C)c1cccc(C)n1)c1cccc(C)n1"
observed_measurement = "6.16^[b]"

[[record]]
compound = "CCC(=NOCCCCCCON=C(C)c1cccc(C)n1)c1cccc(C)n1"
observed_measurement = "5.59^[b]"

[[record]]
compound = "C=C(CON=C(C)c1cccc(C)n1)CON=C(C)c1ccc(Cl)s1 (single isomer, unassigned)"
observed_measurement = "4.91^[b] (isomer B)"

[[record]]
compound = "CC(=NOCC(C)CON=C(C)c1nc(C)c(C)s1)c1cccc(C)n1 (centres unmarked)"
observed_measurement = "4.85^[b]"

[[record]]
compound = "C=C(CON=C(C)c1nc(C)ccc1C)CON=C(C)c1nc(C)ccc1C (single isomer, unassigned) [compound 308]"
observed_measurement = "1.84^[b]"

